The compounds below have reported pKi for cAMP-dependent protein kinase catalytic subunit beta (Rattus norvegicus, UniProt P68182).
By convention, pKi is the negative base-10 log of a molar concentration.

- smiles_representation: "C[C@@H](N)[C@H]1CC[C@H](C(=O)Nc2ccncc2)CC1"
  pKi: 4.60

Ask: Give recorded pKi with cAMP-dependent protein kinase catalytic subunit beta (Rattus norvegicus, UniProt P68182) for the following compound: "O=S(=O)(NCCNC/C=C/c1ccc(Br)cc1)c1cccc2cnccc12"
Result: 7.30
